system: RPMI-8226; assay: NCI tumour cell line growth inhibition, 48 h
Activity calls are given as the source filed them. No stated cut-off is given here; in the data, active = GI50 up to about 1.1 µM and inactive = higher.
readout_kind: GI50

Study these solved cases before continuing.
> print(dat)
                                   molecule   experimental.value
1  Cn1nc(-c2ccccc2)c(C(=O)/C=C/c2ccccc2)c(N2CCCC2)c1=O   6.35 µM (inactive)
2  COc1nc(NC2OC(COC(C)=O)C(OC(C)=O)C(OC(C)=O)C2OC(C)=O)c(-c2csc(N)n2)c(=O)n1C (stereo not given)  > 100 µM (inactive)

Incoming: What measured GI50 goes with `CSC1(SC)N2Cc3ccccc3N=C2C1(c1ccccc1)c1ccccc1` ?
Outgoing: 5.38 µM (inactive)

Incoming: What measured GI50 goes with `CC(=O)OCCn1cnc2nc(Nc3ccccc3)nc(Cl)c21` ?
Outgoing: 89.5 µM (inactive)

Incoming: What measured GI50 goes with CCCCCCCCOC1C(O)C(O)C(O)C(O)C12CO2 (stereo not given) ?
Outgoing: 50.2 µM (inactive)

---

tested on: HOP-62; assay: NCI tumour cell line growth inhibition, 48 h
Calls of active or inactive are those of the source. Cut-off read from the data, not from the text of the source: active = GI50 up to about 1.1 µM and inactive = higher.
readout_kind: GI50

Study these solved cases before continuing.
compound	tested_on	experimental_value
Cc1ccc(/C=C(\NC(=O)c2ccccc2)c2nc3ccccc3[nH]2)cc1	HOP-62	> 100 µM (inactive)
COc1ccc(Nc2nc(N)c(C(=O)c3c[nH]c4ccccc34)s2)cc1	HOP-62	8.02 µM (inactive)
N#C/C(N)=C(C#N)/N=C/Nc1ccc(N)cc1	HOP-62	> 100 µM (inactive)
O=c1ccc2ccc(OP(=O)(O)O)cc2o1	HOP-62	> 100 µM (inactive)
COc1ccc(/C=C/C(=O)c2sc(N)nc2C)cc1	HOP-62	> 100 µM (inactive)

Now take the following compound into account.
Incoming: What measured GI50 goes with `CN(C)/C=C/c1ccnc2c1C(=O)c1ccccc1C2=O` ?
Outgoing: 15.6 µM (inactive)

---

system: A549; assay: NCI tumour cell line growth inhibition, 48 h
The source made the active and inactive calls. Cut-off read from the data, not from the text of the source: active = GI50 up to about 1.1 µM and inactive = higher.
Hello, when you answer, please use one of the following outcomes: active, inactive

> print(dat)
                                   compound  classification
1  Clc1cc(Cl)cc(C2SCc3nc4ccccc4n32)c1 (stereo not drawn)        inactive
2  CC1=C(C)SC(=C2Sc3[n-]c(=O)[nH]c(=O)c3S2)S1.CCCC[N+](CCCC)(CCCC)CCCC        inactive
3  COc1ccc(/C=C2\NC(=S)N(/C=C3\C(=O)Oc4ccccc4C3=O)C2=O)cc1OC        inactive
4  Cc1c(Cl)cc(C(C)(C)C)c(O)c1Cc1c(C)c(Cl)cc(C(C)(C)C)c1O          active
5      O=C1c2ccccc2C(=O)c2nc3ccc(Cl)cc3cc21        inactive

Field: next compound
Incoming: Call for entry NC(=O)N/N=C(\CC1OC(=O)c2ccccc21)c1ccco1 (stereo not drawn) :
Outgoing: inactive

---

system: HL-60; test: NCI tumour cell line growth inhibition, 48 h
Active and inactive are the calls of the source. Cut-off read from the data, not from the text of the source: active = GI50 up to about 1.1 µM and inactive = higher.
Hello, when you answer, please use one of the following outcomes: active, inactive

Worked examples follow.
compound	classification
CN(CC(=O)O)c1ncc2c(n1)-c1ccccc1OC2c1ccccc1 (stereo not drawn)	inactive
Nc1nc(SCc2ccccc2[N+](=O)[O-])c2[nH]cnc2n1	inactive
CC/C=C/C[C@H](O)[C@H]1C[C@H]2O[C@H](CC(=O)OC)C[C@H]2O1	inactive
C/C(=N/OC(=O)c1cccc2c(=O)c3ccccc3[nH]c12)[C@H]1CC[C@H]2[C@@H]3CCC4=C/C(=N/OC(=O)c5cccc6c(=O)c7ccccc7[nH]c56)CC[C@]4(C)[C@H]3CC[C@]12C	inactive
N#CCCN(CCN(CCC#N)C(=O)Nc1ccccc1)C(=O)Nc1ccccc1	inactive
COC(=O)C(C(=O)C(=O)Nc1ccc(C)cc1C)c1nc2ccc([N+](=O)[O-])cc2nc1O (stereo not drawn)	inactive
CCN(CC)CCn1c2ccccc2c(=O)c2c(OC)ccc(OC)c21	inactive
Oc1c2ccccc2c2c3c(cccc13)N=N2	inactive
Cc1ccc(C(=O)C(C)N)cc1 (stereo not drawn)	inactive
CC(C)CNc1nc2ncnc(N)c2[nH]1	active

Incoming: Call for entry `COc1cccc(CCCNC(=O)Cc2cc(OC)c(OC)cc2CO)c1` :
Outgoing: inactive

Incoming: Call for entry CSC1(C)C(=O)Nc2c(OCc3ccccc3)cc([N+](=O)[O-])cc21 (stereo not drawn) :
Outgoing: inactive

---

test system: UACC-257; assay: NCI tumour cell line growth inhibition, 48 h
The source made the active and inactive calls. Cut-off read from the data, not from the text of the source: active = GI50 up to about 1.1 µM and inactive = higher.
Collected GI50 values appear next to each entry.

Study these solved cases before continuing.
> print(dat)
                                   molecule  tested.on   experimental.value
1            ClC(/N=N/c1ccccc1)=N/Nc1ccccc1   UACC-257  > 100 µM (inactive)
2                 Oc1ccc(-c2n[nH]c(S)n2)cc1   UACC-257  > 100 µM (inactive)
3  NS(=O)(=O)c1cc2c(cc1Cl)N=C(CCC(=O)O)NS2(=O)=O   UACC-257  > 100 µM (inactive)
4                          O=Cc1cc(O)ccc1Br   UACC-257   41.5 µM (inactive)
5  Cc1ccc(S(=O)(=O)N(CC(O)c2ccccc2)c2ccccc2F)cc1 (stereo unspecified)   UACC-257   4.65 µM (inactive)

Now take the following molecule into account.
Incoming: What measured GI50 goes with `COc1cccc(/C=C2/S/C(=N/Nc3nc(C)c(C(C)=O)s3)NC2=O)c1O` ?
Outgoing: 25.4 µM (inactive)

---

Collected GI50 values appear next to each entry.
test system: K562; assay: NCI tumour cell line growth inhibition, 48 h
Activity calls are given as the source filed them. Cut-off read from the data, not from the text of the source: active = GI50 up to about 1.1 µM and inactive = higher.

Study these solved cases before continuing.
> print(dat)
                                   molecule   experimental.value
1                 N/N=C(\Cc1ccccc1)NN=C(N)N  > 100 µM (inactive)
2  COc1ccc(-n2c(C)nc3ccc(NC4OC(COC(C)=O)C(OC(C)=O)C(OC(C)=O)C4OC(C)=O)cc3c2=O)cc1 (stereo not given)   36.7 µM (inactive)
3  NCCCC(N/C=C1/N=C(c2ccccc2)OC1=O)C(=O)O (stereo not given)   34.4 µM (inactive)
4           CC1COS(=O)O1 (stereo not given)  > 100 µM (inactive)
5  COc1ccc2c(c1)OC[C@@H]1c3cc(O)c(OCc4ccccc4)cc3O[C@H]21   31.8 µM (inactive)
6  COC(=O)CC1(O)C(/C=C/c2ccccc2)C(C(=O)OC)C(=O)C(C(=O)OC)C1C(=O)OC (stereo not given)  > 100 µM (inactive)
7  CCCCCCCCCCC(C)CCCCCCC(=O)OCC(COP(=O)([O-])OCC[N+](C)(C)C)OC(=O)CCCCCCC(C)CCCCCCCCCC (stereo not given)  > 100 µM (inactive)
8  Cn1c(=O)c2[nH]c(/N=N/N3CCN(CCO)CC3)nc2n(C)c1=O  > 100 µM (inactive)
9    Cc1c2cc[n+](C)cc2c(C)c2c1[nH]c1ccccc12   3.05 µM (inactive)

Now take the following molecule into account.
Incoming: What measured GI50 goes with CCCCCCC1NN(C(C)=O)C(CCCCCC)NN1C(C)=O (stereo not given) ?
Outgoing: 32 µM (inactive)

---

Collected GI50 values appear next to each entry.
test system: NCI-H522; experiment: NCI tumour cell line growth inhibition, 48 h
Active and inactive are the calls of the source. No stated cut-off is given here; in the data, active = GI50 up to about 1.1 µM and inactive = higher.

compound	experimental_value
COC(=O)C(C)(C)[C@@H]1OC(=O)N(S(=O)(=O)c2c(C)cc(C)cc2C)[C@H]1C(C)C	> 100 µM (inactive)
N/C(=N\O)N/N=C/c1cc2c(cc1Cl)OCO2	16 µM (inactive)
O=C(O[C@@H](/C=C/c1ccccc1)P1(=O)N(Cc2ccccc2)[C@@H]2CCCC[C@H]2N1Cc1ccccc1)c1ccccc1	4.54 µM (inactive)

Incoming: Please provide the recorded GI50 for `C/C(=N/OC(=O)c1cccc2c(=O)c3ccccc3[nH]c12)[C@H]1CC[C@H]2[C@@H]3CCC4=C/C(=N/OC(=O)c5cccc6c(=O)c7ccccc7[nH]c56)CC[C@]4(C)[C@H]3CC[C@]12C` , tested on NCI-H522.
Outgoing: 12.3 µM (inactive)

Incoming: Please provide the recorded GI50 for CC1CC2(OC2C)C(=O)OC2CCN(C)C/C=C(/COC(=O)C1(C)O)C2=O (stereo not given) , tested on NCI-H522.
Outgoing: > 100 µM (inactive)

Incoming: Please provide the recorded GI50 for `COc1ccc(C(=O)c2c3cc(OC)c(OC)c(OC)c3cc[n+]2C)cc1` , tested on NCI-H522.
Outgoing: 19.2 µM (inactive)

Incoming: Please provide the recorded GI50 for `Oc1c2ccccc2c2c3c(cccc13)N=N2` , tested on NCI-H522.
Outgoing: 12.2 µM (inactive)

Incoming: Please provide the recorded GI50 for CN(CC(=O)O)c1ncc2c(n1)-c1ccccc1OC2c1ccccc1 (stereo not given) , tested on NCI-H522.
Outgoing: > 100 µM (inactive)

Incoming: Please provide the recorded GI50 for `Cc1ccc2[nH]c3c4c5ccccc5nc-4c[nH]c3c2c1` , tested on NCI-H522.
Outgoing: 21.5 µM (inactive)

Incoming: Please provide the recorded GI50 for `O=C(/C=C/c1ccc(OCCSCCCCCCCCCCSCCOc2ccc(/C=C/C(=O)c3ccc(Cl)cc3)cc2)cc1)c1ccc(Cl)cc1` , tested on NCI-H522.
Outgoing: > 89.3 µM (inactive)

Incoming: Please provide the recorded GI50 for CC(=O)c1ccc2c(c1)CC1(C2)Cc2cc3c(cc2C1=O)CCC3 (stereo not given) , tested on NCI-H522.
Outgoing: 22.7 µM (inactive)

Incoming: Please provide the recorded GI50 for `CCOP(=O)(OCC)/C(C#N)=C\c1cccc2ccccc12` , tested on NCI-H522.
Outgoing: > 88.1 µM (inactive)

Incoming: Please provide the recorded GI50 for `O=C1CCCCC/C1=C\c1cccc(Cl)c1` , tested on NCI-H522.
Outgoing: 39.2 µM (inactive)
